System: Hepatitis C virus
Test: Antiviral activity against Hepatitis C virus GT-1a harboring NS5B polymerase C316Y mutant gene
Type: functional, organism-based, Hepacivirus hominis
pEC50: −log10 of the molar value.

{"smilesRecord": "CNC(=O)c1c(-c2ccc(F)cc2)oc2cc(N(CCO)S(C)(=O)=O)c(C3CC3)cc12", "targetDesc": "Hepatitis C virus", "pEC50": 5.77}

###

Test system: Hepatitis C virus
Assay: Antiviral activity against Hepatitis C virus GT-1a harboring wild type NS5B polymerase
Assay type: functional, organism-based, Hepacivirus hominis
pEC50: −log10 of the molar value.
measurementKind: pEC50

{"smilesRecord": "CNC(=O)c1c(-c2ccc(F)cc2)oc2cc(N(CCO)S(C)(=O)=O)c(C3CC3)cc12", "targetDesc": "Hepatitis C virus", "measurementKind": "pEC50", "assayValue": 8.40}

###

Tested on: Hepatitis C virus
Assay: Antiviral activity against Hepatitis C virus GT-1a harboring NS5B polymerase L392F mutant gene
Type: functional, organism-based, Hepacivirus hominis
pEC50: −log10 of the molar value.

{"molecule": "CNC(=O)c1c(-c2ccc(F)cc2)oc2cc(N(CCO)S(C)(=O)=O)c(C3CC3)cc12 [NESBUVIR]", "pEC50": 8.10}

###

System: Hepatitis C virus
Assay: Antiviral activity against Hepatitis C virus GT-1b harboring NS5B polymerase C316Y mutant gene relative to wild type
Format: functional, organism-based, Hepacivirus hominis
pEC50: −log10 of the molar value.

{"molecule": "CNC(=O)c1c(-c2ccc(F)cc2)oc2cc(N(CCO)S(C)(=O)=O)c(C3CC3)cc12 [NESBUVIR]", "targetDesc": "Hepatitis C virus", "pEC50": 8.22}

###

System: Hepatitis C virus
Test: Antiviral activity against Hepatitis C virus GT-1a harboring NS5B polymerase L392F/M414T mutant gene
Assay type: functional, organism-based, Hepacivirus hominis

{"compound": "CNC(=O)c1c(-c2ccc(F)cc2)oc2cc(N(CCO)S(C)(=O)=O)c(C3CC3)cc12 [NESBUVIR]", "unitText": "nM", "EC50": 22}

Where do these numbers come from? They come from ChEMBL document CHEMBL1671653.
